# TESTED TARGET: cynomolgus IL-36R on BaF/3 cells (cynomolgus, UniProt A0A2K5WSK9 20-558)
# Sequence (A0A2K5WSK9 entry or part of it): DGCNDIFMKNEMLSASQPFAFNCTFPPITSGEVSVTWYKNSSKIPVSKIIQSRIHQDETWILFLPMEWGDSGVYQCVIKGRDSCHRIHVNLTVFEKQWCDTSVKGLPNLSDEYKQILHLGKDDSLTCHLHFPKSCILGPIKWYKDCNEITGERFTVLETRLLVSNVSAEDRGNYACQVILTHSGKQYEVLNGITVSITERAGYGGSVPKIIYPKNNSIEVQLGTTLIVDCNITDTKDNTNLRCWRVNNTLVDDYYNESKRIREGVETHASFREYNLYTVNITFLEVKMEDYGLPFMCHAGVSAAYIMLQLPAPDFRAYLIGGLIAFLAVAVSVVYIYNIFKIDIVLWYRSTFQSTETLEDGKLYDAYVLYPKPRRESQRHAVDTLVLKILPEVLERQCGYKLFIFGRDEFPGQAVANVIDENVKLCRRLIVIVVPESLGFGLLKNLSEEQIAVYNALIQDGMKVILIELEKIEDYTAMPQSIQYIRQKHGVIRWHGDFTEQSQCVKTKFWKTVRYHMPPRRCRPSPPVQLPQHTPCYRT
# EXPERIMENTAL PROTOCOL: cell-based or functional assay
PROPERTY LABEL: IC90, pNFκB, BaF/3 cynomolgus IL-36R cells, trun-IL-36g (nM)
Answers are plain numbers, in nM.

{"BINDER": "antibody 73F6 (antibody, V domains shown, Mouse monoclonal from hybridoma; also called 73F6F8; Mouse 73F6) VH: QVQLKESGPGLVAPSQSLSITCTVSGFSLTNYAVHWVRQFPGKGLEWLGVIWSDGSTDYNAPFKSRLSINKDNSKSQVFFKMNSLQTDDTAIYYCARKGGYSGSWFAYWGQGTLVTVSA VL: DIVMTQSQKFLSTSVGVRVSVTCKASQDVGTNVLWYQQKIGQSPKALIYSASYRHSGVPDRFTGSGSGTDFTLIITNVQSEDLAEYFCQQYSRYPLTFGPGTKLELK", "MEASURED NUMBER": 0.8}
{"BINDER": "antibody 73C5 (antibody, V domains shown, Mouse monoclonal from hybridoma; also called 73C5C10; Mouse 73C5) VH: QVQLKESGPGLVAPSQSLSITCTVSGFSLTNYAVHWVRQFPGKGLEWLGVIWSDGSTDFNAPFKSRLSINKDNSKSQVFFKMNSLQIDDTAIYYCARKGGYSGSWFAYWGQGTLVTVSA VL: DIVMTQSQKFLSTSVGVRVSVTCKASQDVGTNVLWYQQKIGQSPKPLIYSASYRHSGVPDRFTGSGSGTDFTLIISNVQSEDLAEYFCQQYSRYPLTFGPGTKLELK", "MEASURED NUMBER": 1.5}
{"BINDER": "antibody 81A1 (antibody, V domains shown, Mouse monoclonal from hybridoma; also called 81A1D1; Mouse 81A1) VH: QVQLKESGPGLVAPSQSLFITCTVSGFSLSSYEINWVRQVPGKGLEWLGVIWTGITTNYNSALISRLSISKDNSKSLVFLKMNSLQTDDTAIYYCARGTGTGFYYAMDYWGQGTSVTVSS VL: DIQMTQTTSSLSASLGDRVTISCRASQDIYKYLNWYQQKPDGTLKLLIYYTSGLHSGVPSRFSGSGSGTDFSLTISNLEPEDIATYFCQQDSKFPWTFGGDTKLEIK", "MEASURED NUMBER": 1}

Next, consider the following binder.
Which IC90, pNFκB, BaF/3 cynomolgus IL-36R cells, trun-IL-36g value belongs to antibody 78C8 (antibody, V domains shown, Mouse monoclonal from hybridoma; also called 78C8D1; Mouse 78C8) VH: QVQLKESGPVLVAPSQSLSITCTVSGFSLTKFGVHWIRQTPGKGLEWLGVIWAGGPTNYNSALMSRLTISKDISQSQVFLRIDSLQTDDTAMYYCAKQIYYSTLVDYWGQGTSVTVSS VL: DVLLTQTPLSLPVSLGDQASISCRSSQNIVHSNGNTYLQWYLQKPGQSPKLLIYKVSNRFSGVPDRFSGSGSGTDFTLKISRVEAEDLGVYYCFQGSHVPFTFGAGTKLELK ?
1.5

Just for reference, patent US20200231684A1 is where these values come from.
